Experimental details: WST-1 cytotoxicity assay, HeLa
Format: cell-based
Recorded conditions: human, HeLa cells (cervix carcinoma); WST-1, 48 h incubation; read-out: EC50 class, cytotoxic effect, CL-2 (HeLa)
Property: EC50 at 48 h

Check out these entries, answers already filled in.
Oc1c(NCc2ccccc2Sc2ccc(Cl)cc2)ccc(F)c1F	< 10 µM
Oc1ccccc1NCc1ccccc1Sc1ccc(Cl)cc1	< 10 µM
Cc1c(Cl)cc(NC(=S)Nc2ccccc2C(F)(F)F)c(O)c1Cl	10 to 50 µM
Cc1c(Cl)cc(NC(=S)NCc2ccccc2)c(O)c1Cl	10 to 50 µM
Oc1c(Cl)cc(Cl)cc1NCc1cccc(OCc2ccccc2)c1	< 10 µM
COc1ccc(Oc2cccc(CNc3cc(Cl)cc(Cl)c3O)c2)cc1	< 10 µM

Query: Supply reported EC50 at 48 h belonging to this compound: Oc1c(NCc2ccccc2Sc2ccccc2Cl)ccc(F)c1F
Reply: 10 to 50 µM

Query: Give the reported value of EC50 at 48 h for this record: CC(C)(C)CC(C)(C)NC(=O)Nc1cc(Cl)c(O)c(Cl)c1
Reply: 10 to 50 µM

Query: Give recorded EC50 at 48 h. CC(O)c1cc(Cl)cc(NCc2ccccc2Sc2ccc(Cl)cc2)c1O (centres unmarked)
Reply: < 10 µM

Query: Note EC50 at 48 h for the compound shown: Cc1c(Cl)cc(NC(=O)NC(C)(C)CC(C)(C)C)c(O)c1Cl
Reply: < 10 µM

Query: Please list EC50 at 48 h recorded for the compound Cc1c(Cl)cc(NC(=S)Nc2ccc(C(F)(F)F)cc2)c(O)c1Cl
Reply: < 10 µM

----------
UniProt:Q13526: reported IC50 for various molecules.

Sample answers from the record:
O=C(Nc1cc(Cl)c(O)c(Cl)c1)NC1CCCCC1	< 1 µM
O=C(NCc1ccccc1)Nc1cc(Cl)c(O)c(Cl)c1	< 1 µM
Cc1c(Cl)cc(NC(=O)Nc2ccccc2)c(O)c1Cl	10 to 50 µM
Oc1c(Cl)cc(-c2nc3ccccc3s2)cc1NC(=S)NCCc1ccccc1	1 to 10 µM
O=C(Cc1ccc2c(c1)OCO2)Nc1cc(Cl)c(O)c(Cl)c1	1 to 10 µM

Query: Specify the recorded IC50 for Cc1c(Cl)cc(NC(=O)NCCc2nc3ccccc3[nH]2)c(O)c1Cl , system: UniProt:Q13526.
Reply: < 1 µM

Query: Look up and report IC50, with UniProt:Q13526 as system, for O=C(Nc1cc(Br)cc(F)c1O)NC12CC3CC(CC(C3)C1)C2
Reply: < 1 µM

Query: Write down measured IC50 (UniProt:Q13526) for this molecule. Oc1c(Cl)cc(Cl)cc1NCc1ccco1
Reply: 1 to 10 µM

Query: Enter measured IC50, system UniProt:Q13526, for the molecule shown: Cc1c(Cl)cc(NCc2ccccc2)c(O)c1Cl
Reply: 10 to 50 µM

----------
Recorded IC50 values (hPin1 (Homo sapiens, UniProt Q13526)) are given below.

Solved cases (5 shown):
CC(C)(C)NC(=O)Nc1cc(NC(=O)NC2CCCCC2)cc(Cl)c1O [Compound 605]	< 1 µM
CC(C)(C)CC(C)(C)NC(=O)Nc1cc(Cl)cc(Cl)c1O [Compound 30]	1 to 10 µM
O=C(Nc1cc(Cl)c(O)c(Cl)c1)NC12CC3CC(CC(C3)C1)C2 [Compound 719]	< 1 µM
Cc1c(Cl)cc(NC(=S)NC(C)(C)CC(C)(C)C)c(O)c1Cl [Compound 257]	< 1 µM
CCCCCNC(=O)Nc1ccc(C)cc1O [Compound 643]	10 to 50 µM

Query: Name the value of IC50 reported for CC(C)(C)NC(=O)Nc1cc(Br)cc(F)c1O [Compound 127] when tested on hPin1 (Homo sapiens, UniProt Q13526).
Sequence (Q13526 whole entry): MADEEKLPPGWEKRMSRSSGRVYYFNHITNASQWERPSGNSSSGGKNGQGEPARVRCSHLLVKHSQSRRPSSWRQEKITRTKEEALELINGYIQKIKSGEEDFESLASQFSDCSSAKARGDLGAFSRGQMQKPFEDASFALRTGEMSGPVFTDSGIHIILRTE
Reply: 1 to 10 µM

Query: Identify measured IC50 obtained with hPin1 (Homo sapiens, UniProt Q13526) for Cc1c(Cl)cc(NC(=O)NC23CC4CC(CC(C4)C2)C3)c(O)c1Cl [Compound 118] .
Reply: 1 to 10 µM

Query: Quote IC50 with test system hPin1 (Homo sapiens, UniProt Q13526) for CCc1c(Cl)cc(NCc2ccccc2Sc2ccc(Cl)cc2)c(O)c1Cl [Compound 441]
Reply: 1 to 10 µM

Query: Answer with IC50 of Oc1c(NCc2ccccc2Sc2ccc(Cl)cc2)ccc(F)c1F [Compound 399] measured for hPin1 (Homo sapiens, UniProt Q13526).
Reply: < 1 µM

----------
System under test: EcParvulin (Escherichia coli, UniProt P0A9L5)
Sequence (P0A9L5 whole entry): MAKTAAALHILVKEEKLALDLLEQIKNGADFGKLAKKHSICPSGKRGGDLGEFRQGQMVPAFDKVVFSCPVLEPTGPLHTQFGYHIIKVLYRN
Experimental details: protease-coupled PPIase assay, EcParvulin
Format: biochemical
Recorded conditions: 20 nM EcParvulin, substrate Suc-Ala-Phe-Pro-Phe-pNA, chymotrypsin, pH 7.8, 6° C.; read-out: IC50 class, Target T-5 (EcParv)
pIC50: −log10 of the molar value.
Reported pIC50 by item:

Example compounds with recorded pIC50:
CC(C)(C)c1ccc(Oc2cccc(CNc3cc(Cl)cc(Cl)c3O)c2)cc1	4.00 to 4.30
CC(C)(C)NC(=O)Nc1cc(NC(=O)NC2CCCCC2)cc(Cl)c1O	5.00 to 6.00
Oc1c(Cl)cc(Cl)cc1NCc1ccco1	< 4.00
O=C(Nc1cc(Cl)c(O)c(Cl)c1)c1ccco1	4.30 to 5.00
O=C(Nc1cc(Cl)c(O)c(Cl)c1)c1ccccc1	4.30 to 5.00

Query: Answer with the recorded pIC50 of Oc1c(Cl)cc(Cl)cc1NCc1cccc(Oc2ccc(Cl)cc2)c1 only.
Reply: < 4.00

Query: Annotate the compound O=C(Cc1ccccc1[N+](=O)[O-])Nc1cc(Cl)c(O)c(Cl)c1 with its measured pIC50.
Reply: 5.00 to 6.00

----------
Experimental details: WST-1 cytotoxicity assay, PC-3
Assay type: cell-based
Recorded conditions: human, PC-3 cells (prostate carcinoma); WST-1, 48 h incubation; read-out: EC50 class, cytotoxic effect, CL-3 (PC-3)
Known EC50 at 48 h of a selection of molecules

Take a look at these entries with their results.
Cc1c(Cl)cc(NC(=S)Nc2ccc(C(F)(F)F)cc2)c(O)c1Cl [Compound 264]	< 10 µM
Oc1c(F)cccc1NCc1ccccc1Sc1ccc(Cl)cc1 [Compound 357]	< 10 µM
O=C(Nc1cc(Cl)nc(Cl)c1)Nc1cc(Cl)c(O)c(NCc2ccccc2Sc2ccc(Cl)cc2)c1 [Compound 652]	< 10 µM
O=C(Nc1ccc(Cl)cc1)Nc1cc(Cl)c(O)c(NCc2ccccc2Sc2ccc(Cl)cc2)c1 [Compound 633]	< 10 µM

Query: Quote EC50 at 48 h reported for Cc1c(Cl)cc(NC(=S)NCc2ccccc2)c(O)c1Cl [Compound 254] please.
Reply: 10 to 50 µM

----------
The following compounds are shown together with reported pIC50 values.
Target protein (sequence): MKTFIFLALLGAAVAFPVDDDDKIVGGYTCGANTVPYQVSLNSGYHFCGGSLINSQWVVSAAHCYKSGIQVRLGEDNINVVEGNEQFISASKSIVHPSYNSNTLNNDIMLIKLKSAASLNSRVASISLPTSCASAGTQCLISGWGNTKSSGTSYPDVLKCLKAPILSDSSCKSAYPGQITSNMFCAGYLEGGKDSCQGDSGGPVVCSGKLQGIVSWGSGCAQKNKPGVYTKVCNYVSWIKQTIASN
pIC50: −log10 of the molar value.

Known results for compounds:
CC(CC(=O)Nc1cc(Cl)c(O)c(Cl)c1)CC(C)(C)C (centres unmarked)	< 4.00
CC(C)=CC(=O)Nc1cc(Cl)c(O)c(Cl)c1	< 4.00
CC(C)(C)CC(C)(C)NC(=O)Nc1cc(Cl)c(O)c(Cl)c1	4.00 to 4.30
Cc1c(Cl)cc(NC(=O)NC(C)(C)CC(C)(C)C)c(O)c1Cl	4.30 to 5.00

# ---- query compound ----
Query: Give the reported pIC50 for this compound. Cc1c(Cl)cc(NC(=S)Nc2ccc(C(F)(F)F)cc2)c(O)c1Cl
Reply: < 4.00

----------
Experimental details: WST-1 cytotoxicity assay, Caco-2
Type: cell-based
Recorded conditions: human, Caco-2 cells (colon adenocarcinoma); WST-1, 48 h incubation; read-out: EC50 class, cytotoxic effect, CL-4 (Caco-2)
// reported EC50 at 48 h per item

Reference set, count: 5
Cc1c(Cl)cc(NC(=S)Nc2ccc(C(F)(F)F)cc2)c(O)c1Cl	< 10 µM
Cc1c(Cl)cc(NC(=O)NC(C)(C)CC(C)(C)C)c(O)c1Cl	< 10 µM
CC(CC(=O)Nc1cc(Cl)c(O)c(Cl)c1)CC(C)(C)C (stereo not drawn)	10 to 50 µM
Cc1c(Cl)cc(NC(=S)Nc2ccccc2C(F)(F)F)c(O)c1Cl	10 to 50 µM
CC(C)(C)CC(C)(C)NC(=O)Nc1cc(Cl)c(O)c(Cl)c1	10 to 50 µM

Then this compound:
Query: Note EC50 at 48 h for the compound shown: CC(C)(C)CC(C)(C)NC(=O)Nc1cc(Cl)cc(Cl)c1O
Reply: < 10 µM

This collection of values is drawn from patent US20110065760A1.
